assay: yeast display, Sf9 membrane polyspecificity reagent, FACS + sequencing; frameworks hold sequencing errors
reported_property: polyreactivity (PSR sort gate)

INSERT INTO measurements (input_sequence, reported_property, result) VALUES
  ('QVQLVESGGVLVQAGARLRLSSAASRFTLALNTMGCYIQAPVKERELVAAISWSGGSTFADSVKGRFTISRDNAKNTFYLQMNSLKPEDTAVYYCAAPLHVAGGYSRDFGSWGQGTQVTVSS', 'polyreactivity (PSR sort gate)', 'low polyreactivity'),
  ('QVQLVESGGGLVQAGGSLRLSCAASGRTFVDNAMGWYRHAPGKERELVAAISSGGTTNYADSVKGRFTISRDNAKNTVYLQMNSLKPEDTAVYYCNTVATYLRSGYGYWGQGTQVTVSS', 'polyreactivity (PSR sort gate)', 'low polyreactivity');
